// data source = ChEMBL document CHEMBL2069267

system: Carbonic anhydrase 9 (Homo sapiens)
pKi: −log10 of the molar value.
metricName: pKi

{"structureString": "O=C(NCc1ccccc1)c1cc2cc(O)c(O)cc2[nH]1", "experimentalResult": 4.79}
{"structureString": "O=C(O)/C(O)=C/C(=O)c1ccccc1", "experimentalResult": 5.17}
{"structureString": "CCn1cc(C2=C(O)C(=O)NC2=O)c2ccccc21", "experimentalResult": 5.18}
{"structureString": "O=C(O)/C(O)=C1/C(=O)Nc2ccccc21", "experimentalResult": 5.11}
{"structureString": "O=C(O)/C(O)=C/C(=O)c1cn(Cc2ccccc2)c2ccccc12", "experimentalResult": 5.08}

I = COC(=O)/C(O)=C/C(=O)/C=C(\O)c1ccccc1OC
II = CC(=O)c1c(C(=O)O)n(C)c2cc3c(cc12)OCO3
Which value of pKi is numerically greater: that of I or that of II ? Your choice should be expressed through its label.
I

* * *

system: Carbonic anhydrase 2 (Cryptococcus neoformans)
Sequence (Q3I4V7 whole entry): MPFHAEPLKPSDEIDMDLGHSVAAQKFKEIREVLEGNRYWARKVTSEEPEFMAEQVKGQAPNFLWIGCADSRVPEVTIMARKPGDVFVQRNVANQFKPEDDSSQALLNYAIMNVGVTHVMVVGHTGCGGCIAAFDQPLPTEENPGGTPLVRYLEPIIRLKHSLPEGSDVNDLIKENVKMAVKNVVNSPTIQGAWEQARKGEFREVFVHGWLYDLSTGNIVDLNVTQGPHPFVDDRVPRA
metricName: Ki (µM)

Worked examples follow.
{"structureString": "O=C(O)/C(O)=C/C(=O)c1cn(Cc2ccccc2)c2ccccc12", "experimentalResult": 9.63}
{"structureString": "COC(=O)/C(O)=C/C(=O)c1cccn1Cc1ccc(F)cc1", "experimentalResult": 9.73}
{"structureString": "O=C(O)/C(O)=C(\\O)C(=O)O", "experimentalResult": 10.2}
{"structureString": "CCn1cc(C2=C(O)C(=O)NC2=O)c2ccccc21", "experimentalResult": 8.75}

I = COC(=O)c1cc(-c2cn(Cc3ccccc3)c3ccccc23)[nH]n1
II = COC(=O)/C(O)=C/C(=O)/C=C(\O)c1ccccc1OC
III = O=C(O)c1ccccc1Nc1ccccc1
IV = O=C(O)/C(O)=C/C(=O)c1cccn1Cc1ccc(F)cc1
Provide the items ranked by increasing Ki. Form field (ranking): labels in requested order.
III, IV, II, I
(III: 0.087 µM, IV: 0.94 µM, II: 9.85 µM, I: 15.8 µM)

* * *

testDescription: Inhibition of Candida albicans beta carbonic anhydrase NCE103 using CO2 as substrate incubated for 6 hrs prior to substrate addition measured for 10 to 100 secs by stopped flow technique
metricName: Ki (µM)
Numbers only; they are read as µM.

# example entries with known answers
{"structureString": "O=C(O)/C(O)=C1/C(=O)Nc2ccccc21", "Ki (µM)": 7.62}
{"structureString": "O=C(O)/C(O)=C(\\O)C(=O)O", "Ki (µM)": 8.28}
{"structureString": "COC(=O)/C(O)=C1/C(=O)Nc2ccccc21", "Ki (µM)": 7.75}
{"structureString": "COC(=O)/C(O)=C/C(=O)c1cccn1Cc1ccc(F)cc1", "Ki (µM)": 9.39}

Consider the additional compound presented here.
Value lookup for Ki; key = CCn1cc(C2=C(O)C(=O)NC2=O)c2ccccc21
8.4

* * *

# Ki annotations
testDescription: Inhibition of Candida albicans beta carbonic anhydrase NCE103 using CO2 as substrate incubated for 6 hrs prior to substrate addition measured for 10 to 100 secs by stopped flow technique
Give the value in µM but do not write µM after it.

Look up Ki: O=C(O)/C(O)=C/C(=O)c1cn(Cc2ccccc2)c2ccccc12
8.81

Fill blank: measured Ki of the molecule O=C(O)/C(O)=C/C(=O)c1cccn1Cc1ccc(F)cc1 is ____.
9.27

So what does the record say about Ki for O=C(O)c1ccccc1Nc1ccccc1 ?
1.07

Consider the molecule shown here: COC(=O)/C(O)=C/C(=O)/C=C(\O)c1ccccc1OC What is its recorded Ki?
8.36

For O=C(O)c1cc(-c2cn(Cc3ccccc3)c3ccccc23)[nH]n1 , what is its reported Ki?
8.47

Need Ki, item CC(=O)c1c(C(=O)O)n(C)c2cc3c(cc12)OCO3
12.3

What measured Ki goes with CCn1cc(-c2cc(C(=O)O)n[nH]2)c2ccccc21 ?
8.94

Can you share its Ki? I mean this molecule: COC(=O)/C(O)=C1/C(=O)N(c2ccccc2)c2ccccc21
8.44

Which Ki value belongs to COC(=O)c1cc(-c2cn(Cc3ccccc3)c3ccccc23)[nH]n1 ?
15.6

Any idea what Ki was measured for COc1ccccc1/C(O)=C/C(=O)/C=C(\O)C(=O)O ?
8.45

Find the recorded Ki belonging to O=C(O)/C(O)=C/C(=O)c1ccccc1 and report it.
8.76
